These entries and their values trace back to ChEMBL document CHEMBL1130965.

- TARGET OF ASSAY: Protein farnesyltransferase (Homo sapiens, UniProt P49354+P49356)
- TEST SUMMARY: In vitro FPT potency by measuring the ability to inhibit the transfer of [3H]farnesyl from farnesyl pyrophosphate to H-Ras-CLVS.
- Assay type: protein-complex assay
QUANTITY MEASURED: IC50 (nM)

Example results:
>  <COMPOUND>
O=C(Cc1cc[n+]([O-])cc1)N1CCN(C2c3ccc(Cl)cc3SCc3cccnc32)CC1 (centres undefined)

>  <TARGET OF ASSAY>
Protein farnesyltransferase (Homo sapiens, UniProt P49354+P49356)

>  <IC50, nM>
79

$$$$
>  <COMPOUND>
O=C(CC1CCNCC1)N1CCC(=C2c3ccc(Cl)cc3SCc3cccnc32)CC1

>  <TARGET OF ASSAY>
Protein farnesyltransferase (Homo sapiens, UniProt P49354+P49356)

>  <IC50, nM>
590

$$$$

[1] NC(=O)N1CCC(CC(=O)N2CCC(=C3c4ccc(Cl)cc4SCc4cccnc43)CC2)CC1
[2] O=C(Cc1cc[n+]([O-])cc1)N1CCC(=C2c3ccc(Cl)cc3OCc3cccnc32)CC1
[3] O=C(Cc1ccncc1)N1CCC(=C2c3ccc(Cl)cc3SCc3cccnc32)CC1
In this exercise, place the 3 compounds in ascending sequence of their recorded IC50. Write out the labels following the order that was asked for.
3, 1, 2
(3: 190 nM, 1: 920 nM, 2: 1520 nM)

----------
- TARGET OF ASSAY: Protein farnesyltransferase (Homo sapiens, UniProt P49354+P49356)
- TEST SUMMARY: In vitro inhibition of Ras processing by COS cells at 20 uM
- Format: functional, cell-based
QUANTITY MEASURED: inhibition (%)

>  <MOLECULE>
CN1Cc2cccnc2C(N2CCN(C(=O)Cc3ccncc3)CC2)c2ccc(Cl)cc21 (centres undefined)

>  <QUANTITY MEASURED>
inhibition

>  <MEASURED>
0

$$$$

[P] CN1Cc2cccnc2C(N2CCN(/C(=N/Cc3ccncc3)NC#N)CC2)c2ccc(Cl)cc21 (centres undefined)
[Q] N#CN/C(=N\Cc1ccc[n+]([O-])c1)N1CCC(=C2c3ccc(Cl)cc3SCc3cccnc32)CC1
[R] O=C(Cc1cc[n+]([O-])cc1)N1CCC(=C2c3ccc(Cl)cc3OCc3cccnc32)CC1
In this exercise, place the 3 molecules in ascending sequence of their recorded inhibition. Write out the labels following the order that was asked for.
P, Q, R

----------
- TARGET OF ASSAY: Protein farnesyltransferase (Homo sapiens, UniProt P49354+P49356)
- TEST SUMMARY: In vitro inhibition of Ras processing in COS cells
- Format: functional, cell-based
pIC50: −log10 of the molar value.
QUANTITY MEASURED: pIC50

>  <COMPOUND>
O=C(CSc1cc[n+]([O-])cc1)N1CCC(=C2c3ccc(Cl)cc3SCc3cccnc32)CC1

>  <pIC50>
5.30

$$$$
>  <COMPOUND>
NC(=O)N1CCC(CC(=O)N2CCC(=C3c4ccc(Cl)cc4SCc4cccnc43)CC2)CC1

>  <pIC50>
5.42

$$$$
>  <COMPOUND>
CN1Cc2cccnc2C(N2CCN(C(=O)Cc3cc[n+]([O-])cc3)CC2)c2ccc(Cl)cc21 (configuration not stated)

>  <pIC50>
4.70

$$$$
>  <COMPOUND>
O=C(Cc1cc[n+]([O-])cc1)N1CCN(C2c3ccc(Cl)cc3SCc3cccnc32)CC1 (configuration not stated)

>  <pIC50>
5.00

$$$$
>  <COMPOUND>
N#CN=C(NCc1ccncc1)N1CCC(=C2c3ccc(Cl)cc3SCc3cccnc32)CC1

>  <pIC50>
5.77

$$$$

[P] O=C(Cc1cc[n+]([O-])cc1)N1CCC(=C2c3ccc(Cl)cc3SCc3cccnc32)CC1
[Q] O=C(Cc1ccncc1)N1CCC(=C2c3ccc(Cl)cc3SCc3cccnc32)CC1
Select one. Lower pIC50: P or Q Please indicate the selected item by its label.
P

----------
- TARGET OF ASSAY: Protein farnesyltransferase (Homo sapiens, UniProt P49354+P49356)
- TEST SUMMARY: In vitro FPT potency by measuring the ability to inhibit the transfer of [3H]farnesyl from farnesyl pyrophosphate to H-Ras-CLVS.
- Assay type: protein-complex assay
pIC50: −log10 of the molar value.
QUANTITY MEASURED: pIC50

Example results:
>  <COMPOUND>
O=C(Cc1cc[n+]([O-])cc1)N1CCC(=C2c3ccc(Cl)cc3SCc3cccnc32)CC1

>  <TARGET OF ASSAY>
Protein farnesyltransferase (Homo sapiens, UniProt P49354+P49356)

>  <pIC50>
6.28

$$$$
>  <COMPOUND>
CN1Cc2cccnc2C(N2CCN(C(=O)Cc3cc[n+]([O-])cc3)CC2)c2ccc(Cl)cc21 (centres undefined)

>  <TARGET OF ASSAY>
Protein farnesyltransferase (Homo sapiens, UniProt P49354+P49356)

>  <pIC50>
5.57

$$$$
>  <COMPOUND>
O=C(Cc1cc[n+]([O-])cc1)N1CCC(=C2c3ccc(Cl)cc3OCc3cc(Br)cnc32)CC1

>  <TARGET OF ASSAY>
Protein farnesyltransferase (Homo sapiens, UniProt P49354+P49356)

>  <pIC50>
6.96

$$$$
>  <COMPOUND>
O=C(Cc1ccncc1)N1CCC(=C2c3ccc(Cl)cc3S(=O)(=O)Cc3cccnc32)CC1

>  <TARGET OF ASSAY>
Protein farnesyltransferase (Homo sapiens, UniProt P49354+P49356)

>  <pIC50>
6.25

$$$$
>  <COMPOUND>
CN1CCC(CC(=O)N2CCC(=C3c4ccc(Cl)cc4SCc4cccnc43)CC2)CC1

>  <TARGET OF ASSAY>
Protein farnesyltransferase (Homo sapiens, UniProt P49354+P49356)

>  <pIC50>
5.75

$$$$

[I] NC(=O)N1CCC(CC(=O)N2CCN(C3c4ccc(Cl)cc4SCc4cccnc43)CC2)CC1 (centres undefined)
[II] CN1CCC(CC(=O)N2CCN(C3c4ccc(Cl)cc4SCc4cccnc43)CC2)CC1 (centres undefined)
Select one. Lower pIC50: I or II Please indicate the selected item by its label.
II
(II: 5.68, I: 5.95)

[A] O=C(CC1CCNCC1)N1CCN(C2c3ccc(Cl)cc3SCc3cccnc32)CC1 (centres undefined)
[B] N#CN/C(=N\Cc1ccc[n+]([O-])c1)N1CCC(=C2c3ccc(Cl)cc3SCc3cccnc32)CC1
[C] N#CN/C(=N\Cc1ccc[n+]([O-])c1)N1CCN(C2c3ccc(Cl)cc3SCc3cccnc32)CC1 (centres undefined)
[D] O=C(CSc1cc[n+]([O-])cc1)N1CCC(=C2c3ccc(Cl)cc3SCc3cccnc32)CC1
[E] N#CN/C(=N\Cc1ccncc1)N1CCN(C2c3ccc(Cl)cc3SCc3cccnc32)CC1 (centres undefined)
Put the items in sequence by pIC50, from largest down. Write out the labels following the order that was asked for.
B, E, C, D, A

----------
- TARGET OF ASSAY: Protein farnesyltransferase (Homo sapiens, UniProt P49354+P49356)
- TEST SUMMARY: In vitro FPT potency by measuring the ability to inhibit the transfer of [3H]farnesyl from farnesyl pyrophosphate to H-Ras-CLVS.
- Format: protein-complex assay
pIC50: −log10 of the molar value.
QUANTITY MEASURED: pIC50

>  <COMPOUND>
O=C(Cc1ccncc1)N1CCN(C2c3ccc(Cl)cc3SCc3cccnc32)CC1 (stereo in doubt; 40)

>  <pIC50>
6.00

$$$$
>  <COMPOUND>
CN1Cc2cccnc2C(N2CCN(C(=O)Cc3ccncc3)CC2)c2ccc(Cl)cc21 (configuration not stated)

>  <pIC50>
6.08

$$$$
>  <COMPOUND>
O=C(Cc1ccncc1)N1CCN(C2c3ccc(Cl)cc3SCc3cccnc32)CC1 (stereo in doubt; 36)

>  <pIC50>
7.49

$$$$
>  <COMPOUND>
O=C(Cc1cc[n+]([O-])cc1)N1CCN(C2c3ccc(Cl)cc3S(=O)(=O)Cc3cccnc32)CC1 (configuration not stated)

>  <pIC50>
5.47

$$$$
>  <COMPOUND>
O=C(Cc1ccncc1)N1CCN(C2c3ccc(Cl)cc3S(=O)(=O)Cc3cccnc32)CC1 (configuration not stated)

>  <pIC50>
6.00

$$$$

[1] N#CN=C(NCc1ccncc1)N1CCC(=C2c3ccc(Cl)cc3SCc3cccnc32)CC1
[2] CN1Cc2cccnc2C(N2CCN(/C(=N/Cc3ccncc3)NC#N)CC2)c2ccc(Cl)cc21 (configuration not stated)
Return label of the item with the larger pIC50. Candidates: 1 , 2 . Please indicate the selected item by its label.
1
